Target: T1, CD134 protein (His-tagged, Sino Biological Inc. 10481-H08H) (human, UniProt P43489 29-216)
T1 construct: bought protein coated on ELISA plates; also called OX40; TNFRSF4; not shown: His tag
T1 sequence (looked up): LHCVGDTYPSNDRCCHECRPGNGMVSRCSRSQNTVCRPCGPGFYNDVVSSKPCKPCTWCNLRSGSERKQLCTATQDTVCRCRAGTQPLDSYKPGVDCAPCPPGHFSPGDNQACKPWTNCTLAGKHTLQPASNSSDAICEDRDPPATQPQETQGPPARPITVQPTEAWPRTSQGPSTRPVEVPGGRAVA
Experiment: ELISA, coated His-tagged CD134; further: test concentration or dose not given here
Decide by ELISA [abs. corr.]: equal to or exceeding 2 abs. corr. means yes (1), less means no (0).

>>> classification("P018.S.12.A.A06 (antibody, V domains shown, V regions on human Ig constant parts; also called AB134_55) VH: QSVEESGGRLVTPGTPLTLTCTVSGFSLSSFAMTWVRQAPGKGLEWIGIISSSGTTYYASWAKGRFTISKTSTTVDLRITSPTTEDTATYFCASHYDDYGDSDALDPWGPGTLVTVSS VL: AAVMTQTPSPVSAAVGGTVTINCQASEDIYSNLAWFQQKPGQPPKLLIYRASTLASGVPSRFSGSGSGTEFTLTISGLQSDDAATYYCLGVDRHISDRAFGGGTEVVVK")
"no (0)"
>>> classification("P018.S.12.A.F05 (antibody, V domains shown, V regions on human Ig constant parts; also called AB134_81) VH: QSLEESGGGLVQPGGSLKLSCKASGIDFSSYGVSWVRQAPGKGLEWIAYTYPDYGSTDYASWVNGRFTISLDNAQNTVFLQMTSLTAADTATYFCASSSNGWGGGFYFDLWGPGTLVTVSS VL: ALVMTQTPSPVSAAVGGTVTINCQASEDIYSNLAWFQQKPGQPPKLLIYGASTLASGVPSRFSGSGSGTEFTLTINDLKSDDAATYYCLGVYTYITTDPNAFGGGTEVVVK")
"yes (1)"
>>> classification("P018.S.11.A.D06 (antibody, V domains shown, V regions on human Ig constant parts; also called AB134_32) VH: QSLEESGGRLVKPGESLTLTCTVSEFSLSSNAMGWVRQAPGKGLEFIGLIDSGGDAYYATWAKGRFTISKTSSTTVDLKATSLTTEDTATYFCGRGYWFPRLGLWGQGTLVTVSS VL: AAVLTQTPSPVSAAVGGTVSINCQSTKNVYLNNWLGWFQKKPGQPPKLLIYDASTLASGVPSRFKGSGSGTEFTLTISDLESDDAATYYCAGAYDDNSDHTFGGGTEVVVK")
"no (0)"
>>> classification("P018.S.12.A.G03 (antibody, V domains shown, V regions on human Ig constant parts; also called AB134_85) VH: QSLEESGGRLVTPGGSLTLTCTLSGIDLSSNAISWVRQAPGKGLEWIGIIFPGDNIYYATWAKGRFTISKTSTTVDLKMTSLRTADTATYFCARYHADDSVDLWGPGTLVTVSS VL: AYDMTQTPASVSEPVGGTVTIKCQASQSINGWLSWYQQKPGQRPRLLIYRASDLAPGVSSRFKGSGSGTQFTLTISDVESADAATYYCHLGDIYSNIDYVFGGGTEVVVK")
"yes (1)"
>>> classification("P018.S.11.A.H06 (antibody, V domains shown, V regions on human Ig constant parts; also called AB134_49) VH: QSLEESGGRLVTPGTPLTLTCTVSGFSLSTYAMIWVRQAPGEGPEWIGLIAGGGNTWYASWAKGRFTISKTSTTVDLKITSPTTEDTATYFCARADYLGYGNNFWGQGTLVTVSS VL: AAVLTQTPSPVSAAVGGTVTINCQASQSVYNNNYLAWYQQKPGQPPKLLIYWASNLASGVPSRFSGSGSGTQFSLTISGVQSDDAATYYCLGVYDDDADNGFGGGTEVVVK")
"yes (1)"

IN: Check this binder for ELISA [abs. corr.] at or above 2 abs. corr.: P018.S.12.A.A03 (antibody, V domains shown, V regions on human Ig constant parts; also called AB134_52) VH: LEQSAGGAEGGLVKPGGSLELCCKASGFSLNNNYWICWVRQAPGKGLEWIGCIYVGVVSLTYSASWVNGRFTLSKDIDQSTGCLQLNSLTAADTAMYYCARSLYSGYAGYGDGYYGMDLWGPGTLVTVSS VL: GVVMTQTPASVSDPVGGTVTIKCQASQSIGSDLAWYQQKPGQPPKLLIYAASNLASGVSSRFSGIRSGTEFTLTISDLESADAATYYCQCTDYVDSHDTFGGGTEVVVK
OUT: no (0)

IN: Same read-out for P018.S.12.A.A05 (antibody, V domains shown, V regions on human Ig constant parts; also called AB134_54) VH: QSLEESGGRLVTPGTPLTLTCTASGFSLSNYYINWVRQAPGKGLEWIGIIDKSGSAYYASWARGRFTISKTSTTVGLKIPSPTTEDTATYFCARGYGGYADHGLGLWGQGTLVTVSS VL: DVVMTQTPASVSEPVGGTVTIKCQASQSIAGWLAWYQQKPGQPPKLLIYQASKLASGVPSRFSGSGSGTEYTLTISDLESDDAATYYCQCTYGSASGSNGFGGGTEVVVK ?
OUT: yes (1)

IN: Same read-out for P018.S.02.A.F01 (antibody, V domains shown, V regions on human Ig constant parts; also called AB134_1) VH: QSVEESGGRLVTPGTPLTLTCTVSGFSLSSYAMSWVRQAPGKGLEWIGIISSSGVTYYASWAKGRFTISKTSTTVDLRITGPTTEDTATYFCARDPGYSTGWDYFFRLWGQGTLVTVSS VL: AIKMTQTPASVSAAVGGTVSINCQASEDIESYLAWYQQKPGQPPKLLIYDASDLPSGVPSRFKGSGSGKQFTLTISGVQSDDAATYYCQHGAYTSSSDFFYAFGGGTEVVVK ?
OUT: yes (1)

IN: Same read-out for P018.S.12.A.A01 (antibody, V domains shown, V regions on human Ig constant parts; also called AB134_50) VH: QSVEESGGRLVTPGTPLTLTCTVSGFSLSSYAMIWVRQAPGKGLEYIGYISYDGSTYYASWVKGRFTISKTSTTVDLKMTSLTTEDTATYFCARARIDDGYGNLWGQGTLVTVSS VL: DVVMTQTPASVSEPVGGTVTIKCQASESISNYLAWYQQKPGQPPKLLIYAASYLASGVPSRFRGSGSGTEFTLTISDLESADAATYYCQCTYVASTYVGTFGGGTEVVVK ?
OUT: yes (1)

IN: Same read-out for P018.S.12.A.G01 (antibody, V domains shown, V regions on human Ig constant parts; also called AB134_83) VH: QSVEESGGRLVTPGTPLTLTCTVSGFSLSSSTMGWFRQAPGKGLEWIGVIYTDGDTYYARWAKGRFTISKTSTTINLSITSPTSEDTATYFCARRANGYDDFDPWGPGTLVTVSS VL: AYDMTQTPASVEVAVGGTVTIKCQASESISSYLNWYQQKPGQPPKLLIYYESYLASGVPSRFKGSGSGTEYTLTISGVESADAATYYCQQGFSYINVDNTFGGGTEVVVK ?
OUT: no (0)
